pKd: −log10 of the molar value.
Recorded below: pKd, system Retinoic acid receptor RXR-alpha (Homo sapiens).
property-label: pKd

Use these answered entries as a reference point.
Inquiry: Fetch value of pKd on Retinoic acid receptor RXR-alpha (Homo sapiens) for Cc1cc2c(cc1Oc1ccc(C(=O)O)cc1)C(C)(C)CCC2(C)C .
Sequence (P19793 whole entry): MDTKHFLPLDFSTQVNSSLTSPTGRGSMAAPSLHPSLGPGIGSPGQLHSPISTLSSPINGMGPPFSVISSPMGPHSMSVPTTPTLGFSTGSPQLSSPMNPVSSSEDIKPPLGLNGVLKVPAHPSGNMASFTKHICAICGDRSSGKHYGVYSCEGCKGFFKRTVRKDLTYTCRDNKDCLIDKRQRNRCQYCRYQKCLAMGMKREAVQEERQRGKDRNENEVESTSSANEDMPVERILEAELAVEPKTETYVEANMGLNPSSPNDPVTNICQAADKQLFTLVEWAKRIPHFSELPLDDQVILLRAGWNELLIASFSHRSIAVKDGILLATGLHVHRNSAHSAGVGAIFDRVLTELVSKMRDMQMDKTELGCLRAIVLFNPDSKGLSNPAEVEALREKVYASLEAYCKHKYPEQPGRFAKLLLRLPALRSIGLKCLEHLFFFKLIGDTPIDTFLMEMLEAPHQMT
Reply text: 6.28

Inquiry: For Retinoic acid receptor RXR-alpha (Homo sapiens), give pKd of the listed compound: Cc1cc2c(cc1C(C)c1ccc(C(=O)O)cc1)C(C)(C)CCC2(C)C (stereo not drawn)
Reply text: 6.96

Inquiry: System Retinoic acid receptor RXR-alpha (Homo sapiens). Read-out pKd. Item Cc1cc2c(cc1C1(c3ccc(C(=O)O)cc3)CO1)C(C)(C)CCC2(C)C (stereo not drawn) . Report value.
Reply text: 6.17

P: C=C(c1ccc(C(=O)O)cc1)c1cc2c(cc1C)C(C)(C)CCC2
Q: C=C(c1ccc(C(=O)O)cc1)c1cc2c(cc1C)C(C)(C)C(C)C2(C)C (stereo not drawn)
Inquiry: Identify the entry with the smaller pKd: P or Q . Answer format: the label of the selected item.
Reply text: P

----------
Molecular target: Retinoic acid receptor RXR-beta (Mus musculus, UniProt P28704)
Sequence (P28704 whole entry): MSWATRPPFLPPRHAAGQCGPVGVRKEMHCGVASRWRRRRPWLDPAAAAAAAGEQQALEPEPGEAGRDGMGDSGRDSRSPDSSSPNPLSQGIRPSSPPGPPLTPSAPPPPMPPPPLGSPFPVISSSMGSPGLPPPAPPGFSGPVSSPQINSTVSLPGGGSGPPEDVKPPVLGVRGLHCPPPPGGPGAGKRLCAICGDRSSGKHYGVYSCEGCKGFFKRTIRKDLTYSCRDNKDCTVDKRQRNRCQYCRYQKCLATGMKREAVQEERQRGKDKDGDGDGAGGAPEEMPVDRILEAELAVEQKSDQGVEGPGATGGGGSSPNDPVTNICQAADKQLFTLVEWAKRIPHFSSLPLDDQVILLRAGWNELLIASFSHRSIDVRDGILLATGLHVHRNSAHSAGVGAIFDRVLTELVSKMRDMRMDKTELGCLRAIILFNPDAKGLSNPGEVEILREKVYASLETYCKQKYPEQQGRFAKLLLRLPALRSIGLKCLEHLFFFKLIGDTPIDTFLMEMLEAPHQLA
property-label: Kd (nM)

I: Cc1cc2c(cc1C1(c3ccc(C(=O)O)cc3)CO1)C(C)(C)CCC2(C)C (centres undefined)
II: Cc1cc2c(cc1Oc1ccc(C(=O)O)cc1)C(C)(C)CCC2(C)C
Inquiry: Form: Entry with minimum Kd (choose one): I / II Provide the label of your selected option as the answer.
Reply text: I

----------
Biological target: Retinoic acid receptor RXR-gamma (Mus musculus, UniProt P28705)
Sequence (P28705 whole entry): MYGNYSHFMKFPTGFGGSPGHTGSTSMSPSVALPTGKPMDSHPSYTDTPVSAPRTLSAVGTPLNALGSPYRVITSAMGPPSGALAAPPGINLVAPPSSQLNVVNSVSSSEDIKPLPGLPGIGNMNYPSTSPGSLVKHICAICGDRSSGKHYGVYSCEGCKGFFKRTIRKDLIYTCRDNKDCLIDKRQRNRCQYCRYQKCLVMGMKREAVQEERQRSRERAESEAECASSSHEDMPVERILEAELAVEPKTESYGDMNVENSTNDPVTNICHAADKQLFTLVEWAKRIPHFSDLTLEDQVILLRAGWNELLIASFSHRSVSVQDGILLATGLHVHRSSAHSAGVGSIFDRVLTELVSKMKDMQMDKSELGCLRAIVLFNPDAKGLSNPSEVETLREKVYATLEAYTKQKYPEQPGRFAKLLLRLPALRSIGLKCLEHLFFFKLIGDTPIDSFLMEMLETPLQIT
Experiment: Ability to activate gene expression at Retinoic acid receptor RXR-gamma was evaluated in a cotransfection assay.
pEC50: −log10 of the molar value.
property-label: pEC50

Inquiry: Tell me its pEC50 given C=C(c1ccc(C(=O)O)cc1)c1cc2c(cc1C)C(C)(C)CCC2 as the entry.
Reply text: 6.22

Inquiry: Look up and report measured pEC50 for this entry: C=C(c1ccc(C(=O)O)cc1)c1cc2c(cc1C)CCCC2(C)C
Reply text: 5.59

Inquiry: Item Cc1cc2c(cc1Oc1ccc(C(=O)O)cc1)C(C)(C)CCC2(C)C : provide pEC50
Reply text: 6.37

Inquiry: Indicate its recorded pEC50; the molecule in question is Cc1cc2c(cc1C(C)c1ccc(C(=O)O)cc1)C(C)(C)CCC2(C)C (configuration not stated)
Reply text: 6.47

Inquiry: Provide one value: measured pEC50 of Cc1cc2c(cc1C1(c3ccc(C(=O)O)cc3)CO1)C(C)(C)CCC2(C)C (configuration not stated)
Reply text: 7.33

Inquiry: Quick one: give measured pEC50 for Cc1cc2c(cc1Cc1ccc(C(=O)O)cc1)C(C)(C)CCC2(C)C
Reply text: 6.36

Inquiry: Read off the recorded pEC50 for Cc1cc2c(cc1C1(c3ccc(C(=O)O)cc3)CC1)C(C)(C)CCC2(C)C
Reply text: 7.77

Inquiry: Let me know recorded pEC50 for Cc1cc2c(cc1C(C)(C)c1ccc(C(=O)O)cc1)C(C)(C)CCC2(C)C , thanks.
Reply text: 6.19

1: C=C(c1ccc(C(=O)O)cc1)c1cc2c(cc1C)C(C)(C)C(C)C2(C)C (configuration not stated)
2: CC(C)=C(c1ccc(C(=O)O)cc1)c1cc2c(cc1C)C(C)(C)CCC2(C)C
Inquiry: Of the two listed items, which has the higher pEC50? First: 1 Second: 2 I would appreciate it if you answered with the label of your choice.
Reply text: 2
(2: 6.62, 1: 6.30)
